Just for reference, paper PMC7268545 is where these values come from.

Molecular target: human ANO1 channel (isoform acd) (Homo sapiens, UniProt Q5XXA6)
Construct: host or cells: HEK293T
Sequence (Q5XXA6 1-986): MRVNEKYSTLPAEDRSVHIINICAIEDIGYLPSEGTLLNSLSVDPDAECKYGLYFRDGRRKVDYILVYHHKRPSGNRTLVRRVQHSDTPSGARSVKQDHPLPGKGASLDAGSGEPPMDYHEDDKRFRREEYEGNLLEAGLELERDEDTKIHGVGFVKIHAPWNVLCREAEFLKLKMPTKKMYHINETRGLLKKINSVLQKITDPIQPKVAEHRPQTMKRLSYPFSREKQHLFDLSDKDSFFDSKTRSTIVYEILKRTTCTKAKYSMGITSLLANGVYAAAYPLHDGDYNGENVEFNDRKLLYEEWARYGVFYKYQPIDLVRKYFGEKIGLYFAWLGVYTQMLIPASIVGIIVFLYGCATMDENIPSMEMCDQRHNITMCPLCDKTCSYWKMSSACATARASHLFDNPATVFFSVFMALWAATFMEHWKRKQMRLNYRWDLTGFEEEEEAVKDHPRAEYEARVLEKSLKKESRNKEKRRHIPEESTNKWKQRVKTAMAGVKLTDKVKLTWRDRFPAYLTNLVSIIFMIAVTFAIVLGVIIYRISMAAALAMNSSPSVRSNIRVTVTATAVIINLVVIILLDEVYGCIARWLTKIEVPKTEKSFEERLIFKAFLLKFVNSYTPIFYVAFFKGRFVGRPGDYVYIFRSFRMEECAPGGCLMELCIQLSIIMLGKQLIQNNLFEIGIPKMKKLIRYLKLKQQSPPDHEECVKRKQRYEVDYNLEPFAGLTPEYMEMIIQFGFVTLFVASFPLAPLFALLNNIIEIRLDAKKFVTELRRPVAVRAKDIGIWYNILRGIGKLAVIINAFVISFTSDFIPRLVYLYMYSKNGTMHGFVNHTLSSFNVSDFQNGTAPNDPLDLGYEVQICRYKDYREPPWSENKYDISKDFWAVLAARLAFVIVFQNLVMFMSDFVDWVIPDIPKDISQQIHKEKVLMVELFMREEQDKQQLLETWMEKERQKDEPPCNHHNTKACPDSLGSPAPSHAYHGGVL
Experiment: QPatch-48 automated whole-cell electrophysiology, cumulative five-concentration single-addition protocol
Assay type: cell-based
Conditions: independent experiment 2; read-out: IC50s for independent experiments 2
MEASUREMENT KIND: IC50
Answer format reminder: number followed by unit.

The following compounds have reported results that may help.
COMPOUND	ASSAY TARGET	RESULT
N#Cc1c(C(F)(F)F)cc(O)n2c1nc1ccccc12 [1PBC]	human ANO1 channel (isoform acd) (Homo sapiens, UniProt Q5XXA6)	850 nM
O=C(O)c1cccnc1Nc1cccc(C(F)(F)F)c1 [Niflumic acid]	human ANO1 channel (isoform acd) (Homo sapiens, UniProt Q5XXA6)	4620 nM

Turning to the following compound.
Requested read-out: IC50. Entry: O=C(Nc1ccc([N+](=O)[O-])cc1Cl)c1cc(Cl)ccc1O [Niclosamide]
1430 nM
